Molecular target: Gal4-RORγ-LBD (Homo sapiens)
Construct: expressed in transfected cells; host or cells: HEK-293 cells (pcDNA3.1neo plasmid)
Sequence (P51449 269-508 limits assumed): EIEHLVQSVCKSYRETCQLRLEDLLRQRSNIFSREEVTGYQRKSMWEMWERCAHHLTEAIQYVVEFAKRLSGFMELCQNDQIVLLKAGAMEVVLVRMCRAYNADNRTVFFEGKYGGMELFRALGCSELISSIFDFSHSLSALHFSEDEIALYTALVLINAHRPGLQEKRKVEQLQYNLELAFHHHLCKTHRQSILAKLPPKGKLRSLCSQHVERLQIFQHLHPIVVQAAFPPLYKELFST
Experiment: Gal4-RORγ Luciferase Reporter Assay in HEK-293T Cells
Type: cell-based
Settings: HEK-293 cells, 2 μM ursolic acid
pEC50: −log10 of the molar value.

| compound | pEC50 |
| --- | --- |
| O=C(O)[C@H]1C[C@@H]1[C@H]1CN(S(=O)(=O)c2cccc(C(F)(F)F)c2)c2cc(-c3cc(F)cc(OC(F)F)c3)ccc2O1 | 5.30 to 6.30 |
| CC(C)(CO)C(=O)NC[C@H]1CN(S(=O)(=O)c2cccc(C(F)(F)F)c2)c2cc(-c3cc(F)cc(OC(F)F)c3)ccc2O1 [Compound 30DH] | > 6.30 |
| O=C(O)C1(C[C@H]2CN(S(=O)(=O)c3cc(F)cc(C(F)(F)F)c3)c3cc(-c4cc(F)ccc4F)ccc3O2)COC1 [Compound 51G] | > 6.30 |
| O=C(O)CC[C@H]1CN(S(=O)(=O)c2cccc(C(F)(F)F)c2)c2cc(-c3cc(F)cc(F)c3)c(Cl)cc2O1 [Compound 22L] | > 6.30 |
| CC(C)(C[C@H]1CN(S(=O)(=O)c2cccc(C(F)(F)F)c2)c2cc(-c3c(F)ccc(F)c3F)ccc2O1)C(=O)O [Compound 32BM] | > 6.30 |
| O=C(O)[C@@H]1C[C@H]1[C@H]1CN(S(=O)(=O)c2cccc(C(F)(F)F)c2)c2cc(-c3cc(F)cc(OC(F)F)c3)ccc2O1 | > 6.30 |
